Origin of measurements: patent US10093660B2

Molecular target: MNK2a (Homo sapiens (Human), UniProt Q9HBH9)
Sequence (Q9HBH9 whole entry): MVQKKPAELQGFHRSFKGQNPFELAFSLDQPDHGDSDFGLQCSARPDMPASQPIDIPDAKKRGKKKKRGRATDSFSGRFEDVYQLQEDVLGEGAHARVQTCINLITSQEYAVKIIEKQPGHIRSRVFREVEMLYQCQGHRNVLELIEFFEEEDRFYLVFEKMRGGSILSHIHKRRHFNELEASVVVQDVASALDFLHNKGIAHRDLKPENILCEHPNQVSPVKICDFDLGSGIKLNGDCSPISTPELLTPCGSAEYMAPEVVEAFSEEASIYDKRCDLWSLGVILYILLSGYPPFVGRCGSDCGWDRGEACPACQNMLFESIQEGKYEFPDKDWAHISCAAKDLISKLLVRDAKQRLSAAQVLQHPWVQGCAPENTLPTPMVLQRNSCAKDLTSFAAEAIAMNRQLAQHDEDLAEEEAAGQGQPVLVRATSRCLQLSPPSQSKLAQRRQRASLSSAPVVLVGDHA
Assay: MNK2a in vitro kinase assay (Assay 2), ADP-Glo
Format: biochemical
Settings: assay 2; read-out: MNK2 IC50
Text: B. MNK2a In Vitro Kinase Assay (Assay 2)
measured-property: pIC50
Scale: negative log10 of molar concentration, which is what pIC50 denotes.

Guide cases for pIC50, answers given:
[
  {
    "compound": "Cc1cc(N=S(C)(C)=O)cc2ncnc(Nc3ccc(F)cc3O[C@@H]3COC[C@H]3F)c12 (racemic)",
    "pIC50": 7.60
  },
  {
    "compound": "O=S1(=Nc2cc(C(F)(F)F)c3c(Nc4ccc(F)cc4O[C@H]4COC[C@@H]4O)ncnc3c2)CCCC1",
    "pIC50": 8.40
  },
  {
    "compound": "Cc1cc(N=S2(=O)CCCC2)cc2ncnc(Nc3ccc(F)cc3O[C@H]3COC[C@H]3OCC(F)F)c12 (racemic)",
    "pIC50": 8.52
  },
  {
    "compound": "CO[C@@H]1CN(C(=O)OCc2ccccc2)C[C@H]1Oc1cc(F)ccc1Nc1ncnc2cc(N=S3(=O)CCCC3)cc(C)c12",
    "pIC50": 7.11
  },
  {
    "compound": "Cc1cc(N=S(C)(C)=O)cc2ncnc(Nc3ccc(F)cc3O[C@@H]3CN(C)C[C@H]3O)c12",
    "pIC50": 7.04
  },
  {
    "compound": "O=S1(=Nc2cc(F)c3c(Nc4ccc(F)cc4O[C@@H]4COC[C@@H]4O)ncnc3c2)CCC(O)CC1 (mixture of isomers)",
    "pIC50": 7.41
  },
  {
    "compound": "CC(=O)O[C@H]1CN(C(C)=O)C[C@@H]1Oc1ncccc1Nc1ncnc2cc(N=S3(=O)CCCC3)cc(C)c12",
    "pIC50": 6.42
  },
  {
    "compound": "Cc1cc(N=S(C)(C)=O)cc2ncnc(Nc3cccnc3O[C@H]3COC[C@H]3OCCF)c12 (racemic)",
    "pIC50": 8.52
  },
  {
    "compound": "CO[C@@H]1CN(C(C)=O)C[C@H]1Oc1ncccc1Nc1ncnc2cc(N=S3(=O)CCCC3)cc(C)c12",
    "pIC50": 6.89
  },
  {
    "compound": "Cc1cc(N=S2(=O)CCCC2)cc2ncnc(Nc3ccc(F)cc3O[C@H]3COC[C@H]3C#N)c12",
    "pIC50": 8.05
  }
]

**Q:** Would you kindly share the measured pIC50 for `Cc1cc(N=S2(=O)CCCC2)cc2ncnc(Nc3cccnc3O[C@@H]3CN(C)C[C@H]3O)c12` ?
**A:** 7.31

**Q:** How about CS(=O)(=Nc1cc(F)c2c(Nc3ccc(F)cc3O[C@H]3COC[C@@H]3O)ncnc2c1)C1CCOCC1 (some centres unmarked) ?
**A:** 7.49

**Q:** How about CO[C@@H]1COC[C@@H]1Oc1ncccc1Nc1ncnc2cc(N=S3(=O)CCCC3)cc(C)c12 (single isomer, unassigned) ?
**A:** 8.00

**Q:** How about Cc1cc(N=S(C)(=O)C(C)(C)C)cc2ncnc(Nc3ccc(F)cc3O[C@H]3COC[C@@H]3O)c12 (some centres unmarked) ?
**A:** 8.00
